Ref: patent US20230203153A1

- Assayed system: T1, cyclic (biotinylated) ABCB5 peptide (human, disulfide 1-18)
- T1 construct: immobilised at 200 nM on streptavidin-precoated plates; also called cyclic ABCB5 peptide
- T1 peptide: Biotin-CRFGAYLIQAGRMTPEGC
- Method description: cyclic biotinylated peptide ELISA (200 nM peptides), broad range of mAb concentrations, OD 450 nm (mAb-average Iso)
Bridge positions count the residues as written; N and C are the ends. Ends that are not written are not given here. * marks the point of attachment. Biotin = O=C1N[C@H]2[C@H](CS[C@H]2CCCCC(=O)*)N1
Endpoint: EC50 (read off the curve)

See these solved cases before continuing.
[
  {
    "Binder": "ABCB5-Ab43 (antibody, V domains shown) VH: QVQLVQSGAEVKKPGASVKVSCKASGYTFTSYYMHWVRQSPGQGLEWMGIINPSGGSTSYAQKFQGRVTMTRDTSTSTVYMELSSLRSEDTAVYYCARDQAVTGTAYYYYYGMDVWGQGTTVTVSS VL: EIVLTQSPGTLSLSPGERATLSCRASQSVNSKYLAWYQQKPGQAPRLLIYGTSSRATGIPDSFSGSGSGTDFTLTISRLEPEDFAVYYCQQFGSSPLTFGGGTKVEIK",
    "Value observed": "~0.04 µg/mL"
  },
  {
    "Binder": "ABCB5-Ab42 (antibody, V domains shown, detection was with an anti-human secondary antibody) VH: QVQLVQSGAEVKKPGASVKVSCKTSGYTFTSYYMHWVRQSPGQGLEWMGIINPSGGSTSYAQKFQGRVTMTRDTSTSTVYMELSSLRSEDTAVYYCARDQAVTGTAYYYYYGMDVWGQGTTVTVSS VL: EIVLTQSPGTLSLSPGERATLSCRASLSVNSNYLAWYQQKPGQAPRLLIYGTSSRATGIPDSFSGSGSGTDFTLTISRLEPEDFAVYYCQQFGSSPLTFGGGTKVEIK",
    "Value observed": "~0.04 µg/mL"
  }
]

Documented EC50 (read off the curve) of ABCB5-Ab45 (antibody, V domains shown) VH: QVQLVQSGAEVKKPGASVKVSCKASGYTFTNYYMHWVRQAPGQGPEWMGIINPSGGSTSYAQKFQGRVTMTRDTSTSTVYMELSSLRSEDTAVYYCARDLAVTGTAYYYYYGMDVWGQGTTVTVSS VL: EFVLTQSPGTLSLSPGERATLSCRASQSVNSNYLAWYQQKPGQAPRLLIYGTSSRATGIPDSFSGSGSGTDFTLTISRLEPEDFAVYYCQQFGSSPLTFGGGTKVEIK : ~0.02 µg/mL

Documented EC50 (read off the curve) of ABCB5-Ab44 (antibody, V domains shown, also called A44; F01) VH: QVQLVQSGAEVKKPGASVKVSCKASGYTFTSYYMHWVRQAPGQGLEWMGIINPSGGSTSYAQKFKGRVTMTRDTSTSTVYMELSSLRSEDTAVYYCARDQAVTGTAYYYYYGMDVWGQGTTVTVSS VL: EIVLTQSPGTLSLSPGERATLSCRASQSVNSNYLAWYQQKPGQAPRLLIYGTSSRATGIPDSFSGSGSGTDFTLTISRLEPEDFAVYYCQQFGSSPLTFGGGTKVEIK : ~0.04 µg/mL

Documented EC50 (read off the curve) of ABCB5-Ab101 (antibody, human IgG1, kappa, V domains shown, Fully human monoclonal IgG1 kappa) VH: QVQLVQSGAEVKKPGASVKVSCKASGYTFTSYYMHWVRQAPGQGLEWMGIINPSGGSTSYAQKFQGRVTMTRDTSTSTVYMELSSLRSEDTAVYYCARDQAVTGTAYYYYYGMDVWGQGTTVTVSS VL: EIVLTQSPGTLSLSPGERATLSCRASQSVNSNYLAWYQQKPGQAPRLLIYGTSSRATGIPDSFSGSGSGTDFTLTISRLEPEDFAVYYCQQFGSSPLTFGGGTKVEIKR : ~0.04 µg/mL
